# Test system: MOLP-8 human multiple myeloma cell line
# assaySummary: Caspase-Glo 3/7 apoptosis induction assay in MOLP-8 cells
# Format: cell-based
# conditions: caspase-3/7 activity, 2 hours at 37° C., averaged over all runs on all batches, read-out: MOLP8 AC50
In this section we review reported AC50 values for a set of compounds.
Number only, in µM; omit the unit.

AC50 for C[C@@H]1[C@@H](C)C/C=C/[C@@H](C(=O)N2CCOCC2)N2CCC[C@H]2CN2C[C@@]3(CCCc4cc(Cl)ccc43)COc3ccc(cc32)C(=O)NS1(=O)=O [Compound 6] ? 1.95

AC50 for C[C@@H]1[C@@H](C)C/C=C/[C@@H](C(=O)N2CCOCC2)N2CC[C@H]2CN2C[C@@]3(CCCc4cc(Cl)ccc43)COc3ccc(cc32)C(=O)NS1(=O)=O [Compound 9] ? 0.66
